study target: BACE1 (Homo sapiens (Human), UniProt P56817)
measurement protocol: Measurement of BACE1 inhibition by fluorescence resonance energy transfer (FRET), MCA substrate
assay context: read-out: Test Example 1 IC50; FRET, MCA-SEVNLDAEFK(DNP)-NH2 substrate, pH 4.4
Sequence (P56817 75-416): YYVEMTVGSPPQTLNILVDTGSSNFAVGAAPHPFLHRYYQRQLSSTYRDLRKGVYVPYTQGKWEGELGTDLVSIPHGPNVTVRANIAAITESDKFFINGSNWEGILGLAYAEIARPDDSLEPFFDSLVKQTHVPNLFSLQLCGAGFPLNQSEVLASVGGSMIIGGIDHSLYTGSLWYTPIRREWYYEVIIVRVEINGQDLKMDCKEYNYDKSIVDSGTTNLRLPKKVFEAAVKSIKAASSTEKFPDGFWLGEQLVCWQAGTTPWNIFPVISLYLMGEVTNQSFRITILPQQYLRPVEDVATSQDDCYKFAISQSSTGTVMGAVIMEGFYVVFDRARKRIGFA
recorded metric: log10 of IC50 (log10 of the value in nM)
// stored as log10 of IC50 expressed in nM

Solved cases below.
- molecule: "COc1ccc(F)c(-c2ccc3c(c2)C2(COC(N)=N2)C2(COC2)C2(CCC2)O3)c1 (stereo not drawn)"
  study target: "BACE1 (Homo sapiens (Human), UniProt P56817)"
  recorded metric: "log10 of IC50"
  reported result: 2.80
- molecule: "NC1=NC2(CO1)c1cc(-c3cncc(C(F)(F)F)c3)ccc1OC1(CCC1)C21COC1 (stereo not drawn)"
  study target: "BACE1 (Homo sapiens (Human), UniProt P56817)"
  recorded metric: "log10 of IC50"
  reported result: 3.47
- molecule: "NC1=NC2(COC1)c1cc(Br)ccc1OCC21COC1 (stereo not drawn)"
  study target: "BACE1 (Homo sapiens (Human), UniProt P56817)"
  recorded metric: "log10 of IC50"
  reported result: 4.83
- molecule: "CC1(C)Oc2ccc(-c3cccc(Cl)c3)cc2C2(COC(N)=N2)C12COC2 (stereo not drawn)"
  study target: "BACE1 (Homo sapiens (Human), UniProt P56817)"
  recorded metric: "log10 of IC50"
  reported result: 2.40
- molecule: "CC#Cc1cncc(-c2ccc3c(c2)C2(COC(N)=N2)C2(CC2)CO3)c1 (single isomer, unassigned) [RP 52a]"
  study target: "BACE1 (Homo sapiens (Human), UniProt P56817)"
  recorded metric: "log10 of IC50"
  reported result: 2.21
- molecule: "CC1(C)Oc2ccc(-c3ccc(OC(F)F)cc3)cc2C2(COC(N)=N2)C12COC2 (stereo not drawn)"
  study target: "BACE1 (Homo sapiens (Human), UniProt P56817)"
  recorded metric: "log10 of IC50"
  reported result: 3.50

Dear colleague, could you send me log10 of IC50 for each of the items below? Thanks.
1. NC1=NC2(CO1)c1cc(Br)ccc1OCC21COC1 (stereo not drawn)
2. NC1=NC2(CO1)c1cc(-c3cncc(OCC(F)F)c3)ccc1OCC21CC1 (stereo not drawn)

[4.78, 3.05]

====

study target: BACE1 (Homo sapiens (Human), UniProt P56817)
measurement protocol: Measurement of BACE1 inhibition by time resolved fluorescence resonance energy transfer (TR-FRET)
Type: biochemical
assay context: Eu-CEVNLDAEFK-QSY 7 substrate, read-out: Test Example 2 IC50
Kindly state pIC50 for each of the entries shown.
Numbers only, as −log10 of the molar value.

Solved cases below.
- compound: "CC1(C)Oc2ccc(-c3cc(F)ccn3)cc2C2(COC(N)=N2)C12COC2 (centres unmarked)"
  recorded metric: "pIC50"
  reported result: 5.80
- compound: "COc1ccnc(-c2ccc3c(c2)C2(COC(N)=N2)C2(COC2)C(C)(C)O3)c1 (centres unmarked)"
  recorded metric: "pIC50"
  reported result: 6.41
- compound: "COc1cc(-c2ccc3c(c2)C2(COC(N)=N2)C2(COC2)C(C)(C)O3)ccn1 (centres unmarked)"
  recorded metric: "pIC50"
  reported result: 5.64
- compound: "CC#Cc1cc(-c2ccc3c(c2)C2(COC(N)=N2)C2(COC2)CO3)ncn1 (centres unmarked)"
  recorded metric: "pIC50"
  reported result: 5.87
- compound: "CCC1CC=C(c2ccc3c(c2)C2(COC(N)=N2)C2(COC2)C(C)(C)O3)CC1 (centres unmarked)"
  recorded metric: "pIC50"
  reported result: 5.67

Dear colleague, could you send me pIC50 for each of the items below? Thanks.
1. CC1(C)Oc2ccc(-c3cncc(Cl)c3)cc2C2(COC(N)=N2)C12COC2 (centres unmarked)
2. NC1=NC2(CO1)c1cc(C3=CCOCC3)ccc1OCC21COC1 (centres unmarked)

6.62
4.48

====

Kindly state pIC50 for each of the entries shown.
study target: BACE1 (Homo sapiens (Human), UniProt P56817)
measurement protocol: Measurement of BACE1 inhibition by fluorescence resonance energy transfer (FRET), MCA substrate
assay context: read-out: Test Example 1 IC50; FRET, MCA-SEVNLDAEFK(DNP)-NH2 substrate, pH 4.4
Where a name gives a salt, the structure may show the parent alone.
Numbers only, as −log10 of the molar value.

- compound: "CC1(C)Oc2ccc(-c3cccc(C4CC4)c3)cc2C2(COC(N)=N2)C12COC2 (centres unmarked) [RP 140]"
  pIC50: 6.41
- compound: "NC1=NC2(CO1)c1cc(Br)ccc1OC(Cc1ccccc1)C21COC1 (single isomer, unassigned) [RP 15a]"
  pIC50: 5.76
- compound: "CNC(=O)c1cc(F)cc(-c2ccc3c(c2)C2(COC(N)=N2)C2(COC2)C(C)(C)O3)c1 (centres unmarked) [RP 171]"
  pIC50: 5.65
- compound: "NC1=NC2(CO1)c1cc(-c3cncc(OC(F)F)c3)ccc1OCC21CC1 (centres unmarked) [RP 60]"
  pIC50: 5.83
- compound: "CCCC1Oc2ccc(-c3cncnc3)cc2C2(COC(N)=N2)C12COC2 (centres unmarked) [RP 94]"
  pIC50: 6.06

Dear colleague, could you send me pIC50 for each of the items below? Thanks.
1. NC1=NC2(CO1)c1cc(-c3cncnc3)ccc1OC(Cc1ccccc1)C21COC1 (centres unmarked) [RP 202]
2. CC(C)CC1Oc2ccc(Br)cc2C2(COC(N)=N2)C12COC2 (single isomer, unassigned) [RP 13b]
3. NC1=NC2(CO1)c1cc(-c3cncnc3)ccc1OC(Cc1ccccc1)C21COC1 (centres unmarked) [RP 200]
4. COc1cnc(C(=O)Nc2ccc3c(c2)C2(COC(N)=N2)C2(CC2)CO3)cn1 (centres unmarked) [RP 193]
5. NC1=NC2(CO1)c1cc(Br)ccc1OC(CC1CC1)C21COC1 (single isomer, unassigned) [RP 16b]
6. NC1=NC2(CO1)c1cc(-c3cncc(C#CC4CC4)c3)ccc1OC1(CCC1)C21COC1 (centres unmarked) [RP 48]

1. 6.84
2. 4.71
3. 6.89
4. 5.98
5. 5.34
6. 5.95

Dear colleague, could you send me pIC50 for each of the items below? Thanks.
1. NC1=NC2(CO1)c1cc(Nc3ccccn3)ccc1OCC21COC1 (centres unmarked) [RP 25]
2. CC1(C)Oc2ccc(-c3cncnc3)cc2C2(CSC(N)=N2)C12COC2 (centres unmarked) [RP 54, hydrochloride]
3. NC1=NC2(CO1)c1cc(-c3cc(Cl)cnc3F)ccc1OCC21COC1 (centres unmarked) [RP 34]

1. 4.43
2. 6.39
3. 5.91

Dear colleague, could you send me pIC50 for each of the items below? Thanks.
1. CC1(C)Oc2ccc(-c3cncnc3)cc2C2(COC(N)=N2)C12COC2 (centres unmarked) [RP 69]
2. CC1CC=C(c2ccc3c(c2)C2(COC(N)=N2)C2(COC2)C(C)(C)O3)CC1 (centres unmarked) [RP 166]
3. CC#Cc1cncc(-c2ccc3c(c2)C2(CSC(N)=N2)C2(COC2)CO3)c1 (centres unmarked) [RP 68]

[6.40, 5.44, 6.46]

Dear colleague, could you send me pIC50 for each of the items below? Thanks.
1. NC1=NC2(CO1)c1cc(-c3cncnc3)ccc1OC(CC1CC1)C21COC1 (centres unmarked) [RP 207]
2. NC1=NC2(CO1)c1cc(Nc3ncccc3Cl)ccc1OC1(CCC1)C21COC1 (centres unmarked) [RP 44]
3. COc1cncc(-c2ccc3c(c2)[C@@]2(COC(N)=N2)C2(COC2)[C@@H](C)O3)c1 (racemic) [RP 81]
4. NC1=NC2(COC1)c1cc(Br)ccc1OCC21CC1 (centres unmarked) [RP 214]
5. CCOc1cccc(-c2ccc3c(c2)C2(COC(N)=N2)C2(COC2)C2(CCC2)O3)c1 (centres unmarked) [RP 131]

1. 6.34
2. 6.22
3. 5.72
4. 4.39
5. 5.69

Tell me its pIC50 given NC1=NC2(CO1)c1cc(-c3ccccc3F)ccc1OC1(CCC1)C21COC1 (centres unmarked) [RP 124] as the entry.
5.44

====

study target: UniProtKB P56817
measurement protocol: Measurement of Aβ production inhibition in cell (SK-N-BE(2) neuroblastoma cells, Aβ40 ELISA)
assay context: Test Example 3 IC50, Aβ40 production, SK-N-BE(2) cells, 6 hours
Sequence (P56817 46-501): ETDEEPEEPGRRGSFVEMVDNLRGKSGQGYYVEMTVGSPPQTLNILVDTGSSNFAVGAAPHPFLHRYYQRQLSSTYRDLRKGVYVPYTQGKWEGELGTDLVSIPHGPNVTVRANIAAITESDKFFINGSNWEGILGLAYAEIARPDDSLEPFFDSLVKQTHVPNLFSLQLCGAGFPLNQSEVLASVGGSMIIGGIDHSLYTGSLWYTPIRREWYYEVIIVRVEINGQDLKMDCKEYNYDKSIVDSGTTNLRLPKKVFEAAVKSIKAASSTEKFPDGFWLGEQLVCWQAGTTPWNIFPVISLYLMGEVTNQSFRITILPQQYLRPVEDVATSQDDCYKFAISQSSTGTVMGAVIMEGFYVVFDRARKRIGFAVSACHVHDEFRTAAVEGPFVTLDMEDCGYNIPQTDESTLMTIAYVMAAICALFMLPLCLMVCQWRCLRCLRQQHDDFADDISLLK
recorded metric: pIC50
Numbers only, as −log10 of the molar value.

- compound: "COc1cc(-c2ccc3c(c2)C2(COC(N)=N2)C2(COC2)C2(CCC2)O3)c(F)cn1 (centres unmarked)"
  pIC50: 5.96

Dear colleague, could you send me pIC50 for each of the items below? Thanks.
1. CC1(C)Oc2ccc(-c3cccc4cccnc34)cc2C2(COC(N)=N2)C12COC2 (centres unmarked)
2. N#Cc1cccc(-c2ccc3c(c2)C2(COC(N)=N2)C2(COC2)C2(CCC2)O3)c1 (centres unmarked)
3. CC#Cc1ccnc(-c2ccc3c(c2)C2(COC(N)=N2)C2(COC2)CO3)c1 (centres unmarked)

1. 5.85
2. 5.82
3. 6.13

Tell me its pIC50 given COc1ccc(F)c(-c2ccc3c(c2)C2(COC(N)=N2)C2(COC2)C2(CCC2)O3)c1 (centres unmarked) as the entry.
6.18
